Each entry below lists one item and its recorded protein stability index value.
Assay: protein stability index of a GFP-peptide fusion (GPS, HEK-293T) (PSI 1-6); higher = more stable;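 note: 24-mer peptide tiles fused after GFP, lentivirally expressed, FACS-sorted into six equal bins by GFP/DsRed ratio, decoded by Illumina sequencing, PSI is the read-weighted mean bin number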
Conditions: treatment: DMSO; c terminus: a fixed tail appended
Answer with a number only.

Input: State its protein stability index for this sequence: AWMLCKLLDKAGVPPGVVNIVFGT [ALDH8A1]
Output: 2.64

Input: Note protein stability index for the sequence shown: AAPGVDLTRVLAEMREQYEAMAEK [KRT15]
Output: 4.57

Input: Consider the sequence SHHHHQSRGACTSHDPQSSRGSRR [KCNA4] . State its measured protein stability index.
Output: 5.11

Input: Consider the sequence EGGGGGSYFSGQGSDTGASLKLAS [JUNB] and give its recorded protein stability index.
Output: 4.67

Input: State its protein stability index: MPGDTDDAFPVHRVMMASASDYFK [KLHL13]
Output: 3.66

Input: Output protein stability index of DRGGWGISPRGAGYTFGQDISETF [PPP2CA]
Output: 3.21

Input: For the sequence PSRRSENRVVVSGLPPSGSWQDLK [SRSF1] , give its reported protein stability index.
Output: 3.89

Input: Recall and state the measured protein stability index for QSLEGDTTKGTSEMSEKRGPTSSN [MLH1] .
Output: 5.54

----------
Assay: protein stability index of a GFP-peptide fusion (GPS, HEK-293T) (PSI 1-6); higher = more stable
Settings: treatment: MLN4924 1 uM, 8 h; c terminus: a fixed tail appended
# protein stability index per record follows
Keep the answer to the number alone.

Reference set (2 entries):
SEKKTISFQGCMAQLFMDHLFAGA [OR4A15] ... 2.66
LAQDWERCNTTCGRGVKKRLVLCM [ADAMTSL2] ... 1.79

# input for lookup
Input: Give recorded protein stability index. IVWFSFEFVVRCFACPSQALFFKN [KCNA4]
Output: 2.72

----------
Experiment: protein stability index of a GFP-peptide fusion (GPS, HEK-293T) (PSI 1-6); higher = more stable
Conditions: treatment: DMSO; c terminus: a fixed tail appended
attribute.measured: protein stability index

Below: 3 sequences and their reported protein stability index.
YSRRLQVQERLTKQIAVAITEALR [GCH1] ... 2.34
RPHEVLLCSDLVKAYQRCVSAAHK [CHCHD6] ... 2.64
MPKNSKVTQREHSSEHVTESVADL [SLC6A17] ... 5.4

Input: Determine from records and report protein stability index for TDILDLENQRENLEQPFLSVFKKG [PLEKHN1]
Output: 4.52

Input: Report protein stability index, nothing else, for this sequence: LARKNREELDKYWSQQIEESTTVV [KRT18]
Output: 4.24

----------
Test: protein stability index of a GFP-peptide fusion (GPS, HEK-293T) (PSI 1-6); higher = more stable
Conditions: treatment: MLN4924 1 uM, 8 h; c terminus: a fixed tail appended
attribute.measured: protein stability index
The answer should be a number; do not append a unit.

Input: Look up and report measured protein stability index for this entry: MADSASESDTDGAGGNSSSSAAMQ [CCDC6]
Output: 5.38

Input: For RAPEVLLQSTYATPVDMWSVGCIF [CDK4] , write its protein stability index.
Output: 2.35

----------
Experiment: protein stability index of a GFP-peptide fusion (GPS, HEK-293T) (PSI 1-6); higher = more stable
Conditions: treatment: MLN4924 1 uM, 8 h; c terminus: a fixed tail appended
Each entry below lists one item and its recorded protein stability index value.
Give the figure by itself; no unit, no explanation.

Past entries and their recorded results:
ERRELAVEQGERALERRRRALQEE [ZBED3] ... 5.39
SCKADVVELLLSHADCDRRSRIEA [FEM1B] ... 2.65
LPQDPHTKKALEAHCRADELASQD [PPP2R5C] ... 5.17

Input: For the sequence MGVSSVIHPKNPHAPTIHFNYRYF [CPOX] , give its measured protein stability index value.
Output: 2.12

Input: Find the measured protein stability index of RARVKEKFSPEAFTEQLYRYVTKL [ALG2] and report it.
Output: 2.05

Input: Retrieve protein stability index measured for SDQETLRIHERLVAGSLAGAIAQS [SLC25A25] and print it.
Output: 3.8

Input: Using the record for GGLNTETNEKALEAVFGKYGRIVE [RBMX] , state its measured protein stability index.
Output: 3.22

----------
Assay: protein stability index of a GFP-peptide fusion (GPS, HEK-293T) (PSI 1-6); higher = more stable
Details: treatment: MLN4924 1 uM, 8 h; c terminus: a fixed tail appended
Parameter protein stability index: see the listing below.
Give a plain numeric answer without units written out.

Answered examples (4):
SRKIAVEDENDLEELNNGEPQTEH [MIA2] ... 5.37
VSISISGSSRPCLDFLQEVTRQPR [ASB7] ... 2.05
AAFYKGYVPNMLGIIPYAGIDLAV [SLC25A25] ... 3.31
PRSSLAESFFVDYEENEGAGPYLL [ADAMTSL2] ... 3.82

Input: Specify measured protein stability index for CEPPSYRPMHHEDFKEDLKKFRTK [CDC25A] .
Output: 4.93

Input: Provide measured protein stability index value, entry: NCHIGGSFSEETEKKFEHFSGLLN [LOXL2]
Output: 3.44

Input: Please report the measured protein stability index for VLQDGCVFEKAGVSISVVHGNLSE [CPOX]
Output: 3.05

----------
Assay: protein stability index of a GFP-peptide fusion (GPS, HEK-293T) (PSI 1-6); higher = more stable
Conditions: treatment: MLN4924 1 uM, 8 h; c terminus: a fixed tail appended
sequences and their reported protein stability index

The following sequences have reported results that may help.
VMLGAGGVGKSAMTMQFISHRFPE [RIT1] ... 2.12
RMYPFQIHSIALSTFASLIGPFGG [CDS2] ... 2.61
DLHKMNHVTPPNVSLGATGGPPAG [JUNB] ... 4.39

Input: Assign protein stability index to the following record: LLAGGEKATMQNLNDRLASYLDKV [KRT17]
Output: 3.08

Input: Look up and state reported protein stability index for LEPKANLQAALQVLELHHSKLDTT [VPS39]
Output: 4.31

Input: Given the sequence `VRRGHSHLAPSEAKAADSPTRNDL` , write its reported protein stability index.
Output: 4.9

Input: Look up and report measured protein stability index for this entry: HISTFINELDSGFRLLNLKNDSLR [TSN]
Output: 2.1

Input: Query protein stability index for EFRAHRAVLAASSPYFHDQVLLKG [ZBTB22]
Output: 2.77

Input: Dear colleague, please send me the reported protein stability index for YSRRLQVQERLTKQIAVAITEALR [GCH1] when you can.
Output: 2.19

----------
Experiment: protein stability index of a GFP-peptide fusion (GPS, HEK-293T) (PSI 1-6); higher = more stable
Details: treatment: DMSO; c terminus: a fixed tail appended
Satisfied means recorded protein stability index is 3 or above; Not satisfied means it is below 3.

Below, 4 sequences whose answers are already recorded.
IITQLEDSRRVTKENSHQVKEELS [TRIM63] ... Satisfied
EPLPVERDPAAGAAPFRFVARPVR [ZNF511] ... Not satisfied
IAANLENKATNTDHLTTVLYLQLA [C8orf76] ... Not satisfied
RGNTYALQTGPLLGRPDSLELQRQ [RSPH3] ... Satisfied

# input for lookup
Input: // inclusive: protein stability index at least 3? input: EHGLHTKYIHRMMQIEFIKQGSMN [TRAF3IP2]
Output: Not satisfied

----------
Assay: protein stability index of a GFP-peptide fusion (GPS, HEK-293T) (PSI 1-6); higher = more stable
Conditions: treatment: DMSO; c terminus: a fixed tail appended
attribute.measured: protein stability index

// below: answered sequences
KHAVVNLINYQDDAELATRAIPEL [CTNNB1] ... 3.66
YFITLGTEIAEQEGNQKGEQATSL [KCNA1] ... 3.79
HARYRVIHFIAVAVCLLGVGTMVG [SLC35F2] ... 2.42
GWGEVMLMADKVLRWERAWFPPAI [ARL6IP1] ... 2.87
SVRMRRAEKSVAPSNTGSRTTSVR [NEK8] ... 4.62

Input: Return protein stability index for the following sequence: IDSRARRNLGSINTELQDVQRIMV [SEC22B]
Output: 2.8

Input: In one line, give reported protein stability index of the entry YKGRQLQGCPGAKKHEFLTSVLDA [SMOC2] .
Output: 3.39

----------
Assay: protein stability index of a GFP-peptide fusion (GPS, HEK-293T) (PSI 1-6); higher = more stable
Conditions: treatment: DMSO; c terminus: a fixed tail appended
protein stability index of 3 or higher: Criterion met. Under 3: Criterion not met.

YGVKSPLSLIARFSPIAIDGMSGL [ELAVL3] ... Criterion not met

Input: Check if protein stability index >= 3 (inclusive). Item: SFRGAFSNSEKAKNIFRIRFHDPS [NET1]
Output: Criterion not met

The reported numbers originate from the supplement of paper PMC10567573.
